assay: Cytotoxicity against bovine MDBK cells assessed as cell viability after 72 hrs by MTT method; format: cell-based, Bos taurus; settings: cattle
For each record, write down the corresponding CC50 at 72 h.

### Prompt If you can, please state the reported CC50 at 72 h value of FC(F)(F)c1ccc(NCc2cn(-c3ccccc3)nc2-c2ccc(Cl)cc2)cc1 .
### Response 31 µM

### Prompt If you can, please state the reported CC50 at 72 h value of Cc1ccc(-c2nn(-c3ccccc3)cc2CNc2ccc(Br)cc2)cc1 .
### Response > 100 µM

### Prompt If you can, please state the reported CC50 at 72 h value of FC(F)(F)c1ccc(NCc2cn(-c3ccccc3)nc2-c2ccc(Br)cc2)cc1 .
### Response 46 µM

### Prompt If you can, please state the reported CC50 at 72 h value of Cc1ccc(NCc2cn(-c3ccccc3)nc2-c2ccc(C)cc2)cc1 .
### Response > 100 µM

### Prompt If you can, please state the reported CC50 at 72 h value of Brc1ccc(NCc2cn(-c3ccccc3)nc2-c2ccccc2)cc1 .
### Response > 100 µM

### Prompt If you can, please state the reported CC50 at 72 h value of Clc1ccc(NCc2cn(-c3ccccc3)nc2-c2ccc(Cl)cc2)cc1 .
### Response > 100 µM

### Prompt If you can, please state the reported CC50 at 72 h value of FC(F)(F)c1ccc(-c2nn(-c3ccccc3)cc2CNc2ccc(Br)cc2)cc1 .
### Response 64 µM

### Prompt If you can, please state the reported CC50 at 72 h value of Cc1ccc(-c2nn(-c3ccccc3)cc2CNc2ccccc2)cc1 .
### Response > 100 µM

### Prompt If you can, please state the reported CC50 at 72 h value of Cc1ccc(-c2nn(-c3ccccc3)cc2CNc2ccc(C(F)(F)F)cc2)cc1 .
### Response > 100 µM

### Prompt If you can, please state the reported CC50 at 72 h value of FC(F)(F)c1ccc(NCc2cn(-c3ccccc3)nc2-c2ccccc2)cc1 .
### Response 34 µM

### Prompt If you can, please state the reported CC50 at 72 h value of Clc1ccc(NCc2cn(-c3ccccc3)nc2-c2ccccc2)cc1 .
### Response > 100 µM

### Prompt If you can, please state the reported CC50 at 72 h value of Brc1ccc(NCc2cn(-c3ccccc3)nc2-c2ccc(Br)cc2)cc1 .
### Response > 100 µM

### Prompt If you can, please state the reported CC50 at 72 h value of Cc1ccc(NCc2cn(-c3ccccc3)nc2-c2ccccc2)cc1 .
### Response > 100 µM

### Prompt If you can, please state the reported CC50 at 72 h value of FC(F)(F)c1ccc(-c2nn(-c3ccccc3)cc2CNc2ccc(Cl)cc2)cc1 .
### Response 44 µM

### Prompt If you can, please state the reported CC50 at 72 h value of Cc1ccc(NCc2cn(-c3ccccc3)nc2-c2ccc(C(F)(F)F)cc2)cc1 .
### Response > 100 µM

### Prompt If you can, please state the reported CC50 at 72 h value of Cc1ccc(NCc2cn(-c3ccccc3)nc2-c2ccc(Br)cc2)cc1 .
### Response > 100 µM

### Prompt If you can, please state the reported CC50 at 72 h value of Cc1ccc(-c2nn(-c3ccccc3)cc2CNc2ccc(Cl)cc2)cc1 .
### Response > 100 µM

### Prompt If you can, please state the reported CC50 at 72 h value of Brc1ccc(-c2nn(-c3ccccc3)cc2CNc2ccccc2)cc1 .
### Response > 100 µM

### Prompt If you can, please state the reported CC50 at 72 h value of NC(=O)c1ncn([C@@H]2O[C@H](CO)[C@@H](O)[C@H]2O)n1 .
### Response 57 µM

### Prompt If you can, please state the reported CC50 at 72 h value of Cc1ccc(NCc2cn(-c3ccccc3)nc2-c2ccc(Cl)cc2)cc1 .
### Response > 100 µM

### Prompt If you can, please state the reported CC50 at 72 h value of FC(F)(F)c1ccc(NCc2cn(-c3ccccc3)nc2-c2ccc(C(F)(F)F)cc2)cc1 .
### Response 26 µM

---

assay: Cytotoxicity against hamster BHK21 cells assessed as cell viability after 72 hrs by MTT method; format: cell-based, Mesocricetus auratus, BHK-21
measurement.type: CC50 at 72 h

### Prompt If you can, please state the reported CC50 at 72 h value of Clc1ccc(NCc2cn(-c3ccccc3)nc2-c2ccccc2)cc1 .
### Response > 100 µM

### Prompt If you can, please state the reported CC50 at 72 h value of FC(F)(F)c1ccc(NCc2cn(-c3ccccc3)nc2-c2ccc(Br)cc2)cc1 .
### Response 20 µM

### Prompt If you can, please state the reported CC50 at 72 h value of FC(F)(F)c1ccc(-c2nn(-c3ccccc3)cc2CNc2ccc(Br)cc2)cc1 .
### Response 28 µM

### Prompt If you can, please state the reported CC50 at 72 h value of C[C@@]1(O)[C@H](O)[C@@H](CO)O[C@H]1n1ccc(N)nc1=O .
### Response > 100 µM

### Prompt If you can, please state the reported CC50 at 72 h value of Cc1ccc(-c2nn(-c3ccccc3)cc2CNc2ccccc2)cc1 .
### Response > 100 µM

### Prompt If you can, please state the reported CC50 at 72 h value of FC(F)(F)c1ccc(-c2nn(-c3ccccc3)cc2CNc2ccc(Cl)cc2)cc1 .
### Response 31 µM

### Prompt If you can, please state the reported CC50 at 72 h value of Brc1ccc(-c2nn(-c3ccccc3)cc2CNc2ccccc2)cc1 .
### Response > 100 µM

### Prompt If you can, please state the reported CC50 at 72 h value of Cc1ccc(NCc2cn(-c3ccccc3)nc2-c2ccc(Br)cc2)cc1 .
### Response > 100 µM

### Prompt If you can, please state the reported CC50 at 72 h value of FC(F)(F)c1ccc(NCc2cn(-c3ccccc3)nc2-c2ccc(Cl)cc2)cc1 .
### Response 17 µM

### Prompt If you can, please state the reported CC50 at 72 h value of O=c1cnn([C@@H]2O[C@H](CO)[C@@H](O)[C@H]2O)c(=O)[nH]1 .
### Response > 100 µM

---

test: Cytotoxicity against hamster BHK21 cells assessed as cell viability after 72 hrs by MTT method; format: cell-based, Mesocricetus auratus, BHK-21
For each record, write down the corresponding CC50 at 72 h.
Give just the number in µM; leave the unit off.

### Prompt If you can, please state the reported CC50 at 72 h value of Cc1ccc(NCc2cn(-c3ccccc3)nc2-c2ccc(C(F)(F)F)cc2)cc1 .
### Response 88

### Prompt If you can, please state the reported CC50 at 72 h value of Clc1ccc(NCc2cn(-c3ccccc3)nc2-c2ccc(Cl)cc2)cc1 .
### Response 73

### Prompt If you can, please state the reported CC50 at 72 h value of FC(F)(F)c1ccc(NCc2cn(-c3ccccc3)nc2-c2ccc(C(F)(F)F)cc2)cc1 .
### Response 27

### Prompt If you can, please state the reported CC50 at 72 h value of Cc1ccc(-c2nn(-c3ccccc3)cc2CNc2ccc(C(F)(F)F)cc2)cc1 .
### Response 88

### Prompt If you can, please state the reported CC50 at 72 h value of FC(F)(F)c1ccc(NCc2cn(-c3ccccc3)nc2-c2ccccc2)cc1 .
### Response 37

---

system: Respiratory syncytial virus; experiment: Antiviral activity against RSV infected in African green monkey Vero 76 cells after 5 days by plaque reduction assay; assay type: functional, organism-based; details: human respiratory syncytial virus, Vero, 120 h
measurement.type: log10(EC50) (log10 of the value in µM)
// stored as log10 of EC50 expressed in µM

### Prompt If you can, please state the reported log10(EC50) value of Brc1ccc(-c2nn(-c3ccccc3)cc2CNc2ccccc2)cc1 .
### Response 0.95

### Prompt If you can, please state the reported log10(EC50) value of Cc1ccc(NCc2cn(-c3ccccc3)nc2-c2ccc(C(F)(F)F)cc2)cc1 .
### Response 1.40

### Prompt If you can, please state the reported log10(EC50) value of Cc1ccc(-c2nn(-c3ccccc3)cc2CNc2ccccc2)cc1 .
### Response 1.36

### Prompt If you can, please state the reported log10(EC50) value of Cc1ccc(NCc2cn(-c3ccccc3)nc2-c2ccc(Cl)cc2)cc1 .
### Response 1.11

### Prompt If you can, please state the reported log10(EC50) value of Cc1ccc(-c2nn(-c3ccccc3)cc2CNc2ccc(Cl)cc2)cc1 .
### Response 1.15

### Prompt If you can, please state the reported log10(EC50) value of Clc1ccc(NCc2cn(-c3ccccc3)nc2-c2ccccc2)cc1 .
### Response 0.78

### Prompt If you can, please state the reported log10(EC50) value of Cc1ccc(-c2nn(-c3ccccc3)cc2CNc2ccc(Br)cc2)cc1 .
### Response 1.04

### Prompt If you can, please state the reported log10(EC50) value of Cc1ccc(NCc2cn(-c3ccccc3)nc2-c2ccc(Br)cc2)cc1 .
### Response 1.04

### Prompt If you can, please state the reported log10(EC50) value of Clc1ccc(NCc2cn(-c3ccccc3)nc2-c2ccc(Cl)cc2)cc1 .
### Response 1.11

### Prompt If you can, please state the reported log10(EC50) value of Brc1ccc(NCc2cn(-c3ccccc3)nc2-c2ccc(Br)cc2)cc1 .
### Response 0.90

### Prompt If you can, please state the reported log10(EC50) value of NC(=O)c1ncn([C@@H]2O[C@H](CO)[C@@H](O)[C@H]2O)n1 .
### Response 1.54

### Prompt If you can, please state the reported log10(EC50) value of O=c1cnn([C@@H]2O[C@H](CO)[C@@H](O)[C@H]2O)c(=O)[nH]1 .
### Response -0.05

### Prompt If you can, please state the reported log10(EC50) value of Brc1ccc(NCc2cn(-c3ccccc3)nc2-c2ccccc2)cc1 .
### Response 0.95

### Prompt If you can, please state the reported log10(EC50) value of FC(F)(F)c1ccc(-c2nn(-c3ccccc3)cc2CNc2ccc(Br)cc2)cc1 .
### Response 0.70

### Prompt If you can, please state the reported log10(EC50) value of Cc1ccc(NCc2cn(-c3ccccc3)nc2-c2ccccc2)cc1 .
### Response 1.45

### Prompt If you can, please state the reported log10(EC50) value of Cc1ccc(NCc2cn(-c3ccccc3)nc2-c2ccc(C)cc2)cc1 .
### Response 1.45
